Origin of the recorded values: patent US10544156B2

# subject-of-test: human C-terminal DNMT3A (623-908a.a.) (Homo sapiens, UniProt Q9Y6K1)
# Construct: The human C-terminal DNMT3A (623-908a.a.); made in house
# Sequence (Q9Y6K1 627-912 limits assumed): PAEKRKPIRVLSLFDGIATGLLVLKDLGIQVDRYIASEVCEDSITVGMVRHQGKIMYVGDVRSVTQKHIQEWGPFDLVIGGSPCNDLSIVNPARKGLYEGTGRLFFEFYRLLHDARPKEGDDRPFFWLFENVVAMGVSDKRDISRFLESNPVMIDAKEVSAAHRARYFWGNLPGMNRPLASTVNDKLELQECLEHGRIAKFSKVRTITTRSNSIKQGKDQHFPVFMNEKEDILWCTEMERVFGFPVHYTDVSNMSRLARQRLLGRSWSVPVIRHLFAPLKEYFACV
# procedure-details: hDNMT3A assay (restriction-based fluorescence assay)
# Format: biochemical
# condition-parameters: read-out: hDNMT 3A inhibition, Inhibition (%) 32 μM
measured-attribute: inhibition at 32 µM

molecule | measured-attribute | reported-measurement
COc1ccc2cc1Oc1ccc(cc1)C[C@H]1c3c(cc(OC)c4c3Oc3cc5c(cc3O4)CCN(C)[C@H]5C2)CCN1CCCCn1cnc2c(N)ncnc21 [Product 27] | inhibition at 32 µM | 67%
COc1ccc2cc1Oc1ccc(cc1)CC1c3c(cc(OC)c4c3Oc3cc5c(cc3O4)CCN(C)[C@H]5C2)CCN1C=O (stereo partly drawn) [Product 10] | inhibition at 32 µM | 72%
COc1ccc2cc1Oc1ccc(cc1)C[C@H]1c3c(cc(OC)c4c3Oc3cc5c(cc3O4)CCN(C)[C@H]5C2)CCN1C(N)=O [Product 11] | inhibition at 32 µM | 77%

###

# subject-of-test: human C-terminal DNMT3A (623-908a.a.) (Homo sapiens)
# Construct: The human C-terminal DNMT3A (623-908a.a.); made in house
# procedure-details: hDNMT3A assay (restriction-based fluorescence assay)
# Assay type: biochemical
# condition-parameters: interval line below the EC50 of the same compound; read-out: EC50 (μM), range given
Below: a set of entries, each annotated with reported EC50.

substance-smiles | EC50
COc1ccc2cc1Oc1ccc(cc1)C[C@@H]1NCCc3cc(OC)c4c(c31)Oc1cc3c(cc1O4)CCN(C)[C@H]3C2 | 3.21 to 4.49 µM
CCN(CC)CCCNC(=O)N1CCc2cc(OC)c3c4c2[C@@H]1Cc1ccc(cc1)Oc1cc(ccc1OC)C[C@H]1c2cc(c(cc2CCN1C)O3)O4 | 3.72 to 10 µM
CCN(CC)CCCNC(=O)N1CCc2cc3c4cc2[C@@H]1Cc1ccc(OC)c(c1)Oc1ccc(cc1)C[C@H]1c2c(cc(OC)c(c2O4)O3)CCN1C | 1.28 to 3.31 µM
CNC(=S)N1CCc2cc(OC)c3c4c2[C@@H]1Cc1ccc(cc1)Oc1cc(ccc1OC)C[C@H]1c2cc(c(cc2CCN1C)O3)O4 | 1.15 to 3.18 µM

###

# subject-of-test: His-DNMT1 (182 kDa, human) (Homo sapiens, UniProt P26358)
# Construct: His; made in house
# Sequence (P26358 whole entry): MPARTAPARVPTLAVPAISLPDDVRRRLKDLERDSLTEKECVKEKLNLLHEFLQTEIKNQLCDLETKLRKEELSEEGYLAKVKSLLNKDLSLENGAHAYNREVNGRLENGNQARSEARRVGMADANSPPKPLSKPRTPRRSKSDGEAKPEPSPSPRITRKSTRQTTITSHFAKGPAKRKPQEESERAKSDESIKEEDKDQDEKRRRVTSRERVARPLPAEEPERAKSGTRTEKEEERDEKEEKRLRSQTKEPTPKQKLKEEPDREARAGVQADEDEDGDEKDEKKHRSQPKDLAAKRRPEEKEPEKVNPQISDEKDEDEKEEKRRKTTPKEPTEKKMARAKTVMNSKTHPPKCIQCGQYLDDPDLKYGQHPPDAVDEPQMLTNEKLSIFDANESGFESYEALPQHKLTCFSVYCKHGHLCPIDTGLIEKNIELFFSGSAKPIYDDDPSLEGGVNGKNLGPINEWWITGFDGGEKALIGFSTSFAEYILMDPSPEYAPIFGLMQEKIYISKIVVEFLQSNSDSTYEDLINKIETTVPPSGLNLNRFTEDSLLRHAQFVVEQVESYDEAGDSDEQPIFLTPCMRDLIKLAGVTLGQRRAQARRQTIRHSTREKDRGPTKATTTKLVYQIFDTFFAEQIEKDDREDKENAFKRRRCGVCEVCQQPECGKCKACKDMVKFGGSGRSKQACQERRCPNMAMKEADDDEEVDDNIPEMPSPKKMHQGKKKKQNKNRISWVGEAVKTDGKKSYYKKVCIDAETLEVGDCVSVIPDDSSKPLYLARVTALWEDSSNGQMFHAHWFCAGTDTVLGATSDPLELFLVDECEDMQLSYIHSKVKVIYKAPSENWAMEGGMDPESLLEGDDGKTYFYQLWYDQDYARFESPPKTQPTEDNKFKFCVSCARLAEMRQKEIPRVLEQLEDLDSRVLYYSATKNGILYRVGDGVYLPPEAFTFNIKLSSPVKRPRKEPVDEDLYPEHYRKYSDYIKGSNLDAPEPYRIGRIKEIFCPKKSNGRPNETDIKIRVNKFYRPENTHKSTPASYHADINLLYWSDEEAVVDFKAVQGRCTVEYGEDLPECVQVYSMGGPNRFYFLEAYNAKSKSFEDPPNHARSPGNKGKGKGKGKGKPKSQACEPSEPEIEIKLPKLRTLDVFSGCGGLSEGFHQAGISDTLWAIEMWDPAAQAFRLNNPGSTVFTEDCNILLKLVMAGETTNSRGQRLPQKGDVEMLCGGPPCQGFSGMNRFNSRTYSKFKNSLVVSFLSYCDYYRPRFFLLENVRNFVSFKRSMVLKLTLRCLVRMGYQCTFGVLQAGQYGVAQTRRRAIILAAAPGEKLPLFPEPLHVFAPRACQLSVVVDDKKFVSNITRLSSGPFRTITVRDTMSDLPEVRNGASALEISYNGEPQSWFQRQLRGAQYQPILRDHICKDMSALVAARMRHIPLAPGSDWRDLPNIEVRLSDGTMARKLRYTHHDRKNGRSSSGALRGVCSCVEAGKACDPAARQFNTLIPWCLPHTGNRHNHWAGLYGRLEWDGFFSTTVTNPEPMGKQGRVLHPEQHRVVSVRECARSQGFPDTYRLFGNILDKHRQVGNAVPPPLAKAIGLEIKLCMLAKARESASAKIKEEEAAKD
# procedure-details: hDNMT1 assay ([methyl-3H] SAM Flashplate)
# Assay type: biochemical
# condition-parameters: read-out: hDNMT 1 inhibition, Inhibition (%) 10 μM
# Procedure: His-DNMT1 (182 kDa, human) was cloned, expressed and purified as described (Halby et al. Chem Bio Chem 2012, 13, 157-165). […] The Flashplate™ was agitated at room temperature for 1 hour and read in 200 μL of 50 mM Tris-HCl pH 7.4 on TopCount NXT (PerkinElmer). […] The formula used to calculate the percentage of inhibition is [(X−Y)/X]×100, where X is the signal determined in the absence of the inhibitor and Y is the signal obtained in the presence of the inhibitor.
Collected inhibition at 10 µM values appear next to each entry.
measured-attribute: inhibition at 10 µM (%)

substance-smiles | reported-measurement
COc1ccc2cc1Oc1ccc(cc1)C[C@@H]1NCCc3cc(OC)c4c(c31)Oc1cc3c(cc1O4)CCN(C)[C@H]3C2 | 4
CCN(CC)CCCNC(=S)N1CCc2cc3c4cc2[C@@H]1Cc1ccc(OC)c(c1)Oc1ccc(cc1)C[C@H]1c2c(cc(OC)c(c2O4)O3)CCN1C | 38
CNC(=O)N1CCc2cc(OC)c3c4c2[C@@H]1Cc1ccc(cc1)Oc1cc(ccc1OC)C[C@H]1c2cc(c(cc2CCN1C)O3)O4 | 0
CCN(CC)CCCNC(=S)N1CCc2cc3c4cc2[C@@H]1Cc1ccc(OC)c(c1)Oc1ccc(cc1)C[C@H]1c2c(cc(OC)c(c2O4)O3)CCN1C(=S)NCCCN(CC)CC | 60
CCN(CC)CCCNC(=O)N1CCc2cc3c4cc2[C@@H]1Cc1ccc(OC)c(c1)Oc1ccc(cc1)C[C@H]1c2c(cc(OC)c(c2O4)O3)CCN1C(=O)NCCCN(CC)CC | 32

###

# System: KG-1 (leukemia)
# procedure-details: Anti-proliferative activity (ATPLite)
# Type: cell-based
# condition-parameters: Homo sapiens; daily treatment, cell viability by ATPLite; read-out: Antiproliferative activity: IC50 (μM) KG-1 (leukemia)

substance-smiles | IC50, µM
CCN(CC)CCCNC(=S)N1CCc2cc3c4cc2[C@@H]1Cc1ccc(OC)c(c1)Oc1ccc(cc1)C[C@H]1c2c(cc(OC)c(c2O4)O3)CCN1C(=S)NCCCN(CC)CC | 5.3
CNC(=O)N1CCc2cc(OC)c3c4c2[C@@H]1Cc1ccc(cc1)Oc1cc(ccc1OC)C[C@H]1c2cc(c(cc2CCN1C)O3)O4 | 4.2
COc1ccc2cc1Oc1ccc(cc1)C[C@@H]1NCCc3cc(OC)c4c(c31)Oc1cc3c(cc1O4)CCN(C)[C@H]3C2 | 2.1
CCN(CC)CCCNC(=S)N1CCc2cc3c4cc2[C@@H]1Cc1ccc(OC)c(c1)Oc1ccc(cc1)C[C@H]1c2c(cc(OC)c(c2O4)O3)CCN1C | 3.57

###

# subject-of-test: human C-terminal DNMT3A (623-908a.a.) (Homo sapiens)
# Construct: The human C-terminal DNMT3A (623-908a.a.); made in house
# procedure-details: hDNMT3A assay (restriction-based fluorescence assay)
# Type: biochemical
# condition-parameters: read-out: hDNMT 3A inhibition, Inhibition (%) 32 μM
Listed compounds paired with reported inhibition at 32 µM

compound | inhibition at 32 µM (%)
COc1ccc2cc1Oc1ccc(cc1)C[C@H]1c3c(cc(OC)c4c3Oc3cc5c(cc3O4)CCN(CCCCn3cnc4c(N)ncnc43)[C@H]5C2)CCN1C [Product 25] | 72
COc1ccc2cc1Oc1ccc(cc1)CC1c3c(cc(OC)c4c3Oc3cc5c(cc3O4)CCN(C)[C@H]5C2)CCN1C(=O)C1CCC(CN2C(=O)C=CC2=O)CC1 (stereo partly drawn) [Product 30] | 88
CNC(=S)N1CCc2cc3c4cc2[C@@H]1Cc1ccc(OC)c(c1)Oc1ccc(cc1)C[C@H]1c2c(cc(OC)c(c2O4)O3)CCN1C [Product 46] | 52
CNC(=S)N1CCc2cc3c4cc2[C@@H]1Cc1ccc(OC)c(c1)Oc1ccc(cc1)C[C@H]1c2c(cc(OC)c(c2O4)O3)CCN1C(=S)NC [Product 47] | 40
COc1ccc2cc1Oc1ccc(cc1)C[C@H]1c3c(cc(OC)c4c3Oc3cc5c(cc3O4)CCN(CCCn3cnc4c(N)ncnc43)[C@H]5C2)CCN1C [Product 24] | 77
COc1ccc2cc1Oc1ccc(cc1)CC1c3c(cc(OC)c4c3Oc3cc5c(cc3O4)CCN(C)[C@H]5C2)CCN1C(=O)CCCl (stereo partly drawn) [Product 32] | 82
COc1ccc2cc1Oc1ccc(cc1)C[C@H]1c3c(cc(OC)c4c3Oc3cc5c(cc3O4)CCN(C)[C@H]5C2)CCN1C(=O)OCCCCn1cnc2c(N)ncnc21 [Product 18] | 66
CCN(CC)CCCNC(=O)N1CCc2cc(OC)c3c4c2[C@@H]1Cc1ccc(cc1)Oc1cc(ccc1OC)C[C@H]1c2cc(c(cc2CCN1C)O3)O4 [Product 49] | 75
COc1ccc2cc1Oc1ccc(cc1)C[C@H]1c3c(cc(OC)c4c3Oc3cc5c(cc3O4)CCN(C)[C@H]5C2)CCN1C#N [Product 15] | 50
COc1ccc2cc1Oc1ccc(cc1)C[C@H]1c3c(cc(OC)c4c3Oc3cc5c(cc3O4)CCN(C)[C@H]5C2)CCN1CCC#N [Product 16] | 77
COc1ccc2cc1Oc1ccc(cc1)C[C@H]1c3c(cc(OC)c4c3Oc3cc5c(cc3O4)CCN(CCC#N)[C@H]5C2)CCN1C [Product 22] | 64
COc1ccc2cc1Oc1ccc(cc1)CC1c3c(cc(OC)c4c3Oc3cc5c(cc3O4)CCN(C)[C@H]5C2)CCN1C(=O)/C=C/CN(C)C (stereo partly drawn) [Product 33] | 87

###

# subject-of-test: human C-terminal DNMT3A (623-908a.a.) (Homo sapiens, UniProt Q9Y6K1)
# Construct: The human C-terminal DNMT3A (623-908a.a.); made in house
# procedure-details: hDNMT3A assay (restriction-based fluorescence assay)
# Format: biochemical
# condition-parameters: read-out: hDNMT 3A inhibition, Inhibition (%) 10 μM

compound | subject-of-test | measurement-unit | inhibition at 10 µM
COc1ccc2cc1Oc1ccc(cc1)C[C@H]1c3c(cc(OC)c4c3Oc3cc5c(cc3O4)CCN(CC#N)[C@H]5C2)CCN1C | human C-terminal DNMT3A (623-908a.a.) (Homo sapiens, UniProt Q9Y6K1) | % | 50
CNC(=O)N1CCc2cc(OC)c3c4c2[C@@H]1Cc1ccc(cc1)Oc1cc(ccc1OC)C[C@H]1c2cc(c(cc2CCN1C)O3)O4 | human C-terminal DNMT3A (623-908a.a.) (Homo sapiens, UniProt Q9Y6K1) | % | 82
COc1ccc2cc1Oc1ccc(cc1)C[C@H]1c3c(cc(OC)c4c3Oc3cc5c(cc3O4)CCN(CCC#N)[C@H]5C2)CCN1C | human C-terminal DNMT3A (623-908a.a.) (Homo sapiens, UniProt Q9Y6K1) | % | 60
COc1ccc2cc1Oc1ccc(cc1)C[C@H]1c3c(cc(OC)c4c3Oc3cc5c(cc3O4)CCN(C)[C@H]5C2)CCN1C(=O)OCCCCn1cnc2c(N)ncnc21 | human C-terminal DNMT3A (623-908a.a.) (Homo sapiens, UniProt Q9Y6K1) | % | 66
COc1ccc2cc1Oc1ccc(cc1)C[C@H]1c3c(cc(OC)c4c3Oc3cc5c(cc3O4)CCN(C)[C@H]5C2)CCN1C(N)=O | human C-terminal DNMT3A (623-908a.a.) (Homo sapiens, UniProt Q9Y6K1) | % | 43
COc1ccc2cc1Oc1ccc(cc1)CC1c3c(cc(OC)c4c3Oc3cc5c(cc3O4)CCN(C)[C@H]5C2)CCN1C=O (stereo partly shown) | human C-terminal DNMT3A (623-908a.a.) (Homo sapiens, UniProt Q9Y6K1) | % | 17
CNC(=S)N1CCc2cc3c4cc2[C@@H]1Cc1ccc(OC)c(c1)Oc1ccc(cc1)C[C@H]1c2c(cc(OC)c(c2O4)O3)CCN1C | human C-terminal DNMT3A (623-908a.a.) (Homo sapiens, UniProt Q9Y6K1) | % | 7
COc1ccc2cc1Oc1ccc(cc1)C[C@H]1c3c(cc(OC)c4c3Oc3cc5c(cc3O4)CCN(CCCCn3cnc4c(N)ncnc43)[C@H]5C2)CCN1C | human C-terminal DNMT3A (623-908a.a.) (Homo sapiens, UniProt Q9Y6K1) | % | 46
CNC(=S)N1CCc2cc3c4cc2[C@@H]1Cc1ccc(OC)c(c1)Oc1ccc(cc1)C[C@H]1c2c(cc(OC)c(c2O4)O3)CCN1C(=S)NC | human C-terminal DNMT3A (623-908a.a.) (Homo sapiens, UniProt Q9Y6K1) | % | 10
COc1ccc2cc1Oc1ccc(cc1)C[C@H]1c3c(cc(OC)c4c3Oc3cc5c(cc3O4)CCN(C)[C@H]5C2)CCN1C(=O)OCCCn1cnc2c(N)ncnc21 | human C-terminal DNMT3A (623-908a.a.) (Homo sapiens, UniProt Q9Y6K1) | % | 67
